Tested on: Plasmodium berghei
Assay: Screen against P. berghei liver stage (PbLuc), transformed with Luciferase, at 10uM
Type: functional, HepG2
Settings: tested at 10 uM
Screen size: about 69,000 compounds; about 8,600 (12%) showed an effect of 50% or more. The list comes from a sample in which strong results are over-represented; it also holds close analogues and randomly drawn compounds.
metric.name: INHIBITION (%)
Numbers only here, please. The scale is %.

// query Entry CN(C)C(=O)CN1C[C@H]2CCN(c3ncccn3)CC[C@H]2S1(=O)=O : reported INHIBITION = ?
// result -85.3

More entries:
// query // lookup INHIBITION for COc1ccc(CC(=O)N2CC[C@@H]3CN(C)S(=O)(=O)[C@@H]3CC2)cc1
// result 37.5

// query Look up INHIBITION for this compound: O=S1(=O)NC[C@H]2CCN(Cc3ccccc3)CC[C@H]21
// result 12.7

// query Sample CN(C)C(=O)CN1C[C@H]2CCN(C(=O)c3ccccc3)CC[C@H]2S1(=O)=O — what was its INHIBITION?
// result 44.2

// query I would be grateful if you could share the reported INHIBITION for Cc1ccccc1NC(=O)N1CC[C@@H]2CN(C)S(=O)(=O)[C@@H]2CC1 .
// result -6.05
